- EXPERIMENTAL SYSTEM: T1, recombinant LILRB2 ECD (human, UniProt Q8N423 22-460)
- T1 construct: also called biotinylated LILRB2 ECD
- T1 sequence (Q8N423 22-460 limits assumed): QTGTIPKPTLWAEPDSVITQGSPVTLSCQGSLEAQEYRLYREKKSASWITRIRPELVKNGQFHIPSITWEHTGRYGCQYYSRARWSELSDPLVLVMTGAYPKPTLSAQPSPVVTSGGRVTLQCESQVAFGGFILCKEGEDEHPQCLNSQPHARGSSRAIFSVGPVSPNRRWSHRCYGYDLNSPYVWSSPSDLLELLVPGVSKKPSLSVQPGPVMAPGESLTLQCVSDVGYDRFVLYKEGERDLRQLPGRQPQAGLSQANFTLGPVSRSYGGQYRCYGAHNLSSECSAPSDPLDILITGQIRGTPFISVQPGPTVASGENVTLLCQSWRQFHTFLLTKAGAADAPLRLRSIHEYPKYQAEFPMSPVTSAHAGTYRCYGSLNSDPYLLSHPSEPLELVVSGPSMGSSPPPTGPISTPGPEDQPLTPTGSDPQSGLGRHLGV
- TEST DESCRIPTION: BLI, IgG on AHC sensor, ECD in solution
READOUT NAME: Kd (nM)
Answers are plain numbers, in nM.

A-018 (antibody, V domains shown, tested as IgG) VH: QVQLVQSGAEVKKPGSSVKVSCKASGGTFSTSAISWVRQAPGQGLEWMGGIIPIFYTANYAQKFQGRVTITADESTSTAYMELSSLRSEDTAVYYCAKDLGTYSSGWPYYYGMDVWGQGTTVTVSS VL: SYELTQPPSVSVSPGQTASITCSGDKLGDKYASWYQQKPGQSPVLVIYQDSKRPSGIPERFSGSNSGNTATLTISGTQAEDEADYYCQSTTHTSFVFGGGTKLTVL
2.7
A-014 (antibody, V domains shown, tested as IgG) VH: QVQLVQSGAEVKKPGSSVKVSCKASGGTFSSYAINWVRQAPGQGLEWMGGIIPIFHTSNYAQKFQGRVTITADESTSTAYMELSSLRSEDTAVYYCAKDLGTYSSGWPYYYGMDVWGQGTTVTVSS VL: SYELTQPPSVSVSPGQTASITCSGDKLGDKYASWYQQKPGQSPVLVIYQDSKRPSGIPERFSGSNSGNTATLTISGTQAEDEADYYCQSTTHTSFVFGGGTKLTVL
2.3

Inquiry: State the recorded Kd for this entry: A-033 (antibody, V domains shown, tested as IgG) VH: QVQLVQSGAEVKKPGSSVKVSCKASGYTFSSHAMSWVRQAPGQGLEWMGGIIPTFKTAVFAQKFQGRVTITADESTSTAYMELSSLRSEDTAVYYCAKGPPVGSSSWYTDWYFDLWGRGTLVTVSS VL: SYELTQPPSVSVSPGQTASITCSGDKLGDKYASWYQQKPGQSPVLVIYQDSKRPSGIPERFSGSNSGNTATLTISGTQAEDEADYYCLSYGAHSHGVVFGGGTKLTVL
Reply text: 1.4
